TESTED TARGET: GR DBD WT (Homo sapiens, UniProt P04150 417-506)
Sequence (P04150 417-506): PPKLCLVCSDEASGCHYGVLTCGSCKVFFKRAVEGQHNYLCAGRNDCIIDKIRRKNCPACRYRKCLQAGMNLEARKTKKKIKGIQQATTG
ASSAY NOTES: fluorescence polarization

| BINDER | Kd |
| --- | --- |
| TSLP, low site only (dsDNA) DNA 1: CCGCCTCCGG DNA 2: CCGGAGGCGG | 12.7 µM |
